Target: complex V (F1FO ATPase) (Rattus norvegicus, UniProt P19511+Q06647)
Assay: ATP hydrolysis in SMVs, luciferin-luciferase assay
measured quantity: EC50 (µM)
Note: unit µM is implicit; provide only the numeric part.

Provide value of EC50 for this record tested with complex V (F1FO ATPase) (Rattus norvegicus, UniProt P19511+Q06647): CCCN[C@@H]1CCc2nc(N)sc2C1 [dexpramipexole]
1.63

----------
Target: leak conductance of SMVs enriched in F1FO ATP synthase (complex V) (Rattus norvegicus, UniProt P19511+Q06647)
Test: biochemical
measured quantity: pEC50
Bear in mind: pEC50 is minus log10 of a mol/L concentration; give just that figure.

Would you mind telling me what pEC50 value was observed for CCCN[C@@H]1CCc2nc(N)sc2C1 [dexpramipexole] ?
6.95
